Target: PD-1 (human, UniProt Q15116 25-167, limits assumed)
Sequence (Q15116 25-167 limits assumed): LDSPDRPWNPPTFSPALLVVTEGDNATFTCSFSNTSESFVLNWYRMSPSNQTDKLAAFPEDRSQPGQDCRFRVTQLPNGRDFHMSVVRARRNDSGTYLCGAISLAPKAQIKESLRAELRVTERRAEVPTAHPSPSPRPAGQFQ
Assay: HTRF
For each of the binders below, state its PD1 Binding.
Numbers only.

Below are worked cases with known answers.
[
  {
    "BINDER": "PD1-IL2-R07-A09 (SEQ ID NO: 34) (scFv, V5-tagged in the assay) scFv: QVQLVQSGAEVKKPGASVKVSCKASGYTFTSYYMHWVRQAPGQGLEWMGIINPSDGSTTYAQSFQGRVTMTRDTSTSTVYMELSSLRSEDTAVYYCASGWDVWGQGTLVTVSSASGGGGSGGGGSGGGGSHASDIVMTQSPDSLAVSLGERATINCKSSQSVFSSANNKNYLAWYQQKPGQPPKLLIYWASTRESGVPDRFSGSGSGTDFTLTISSLQAEDVAVYYCQQYFGTPVTFGGGTKVEIK",
    "RESULT NUMBER": 1240
  },
  {
    "BINDER": "PD1-IL2-R02-C03 (SEQ ID NO: 32) (scFv, V5-tagged in the assay) scFv: QVQLVQSGAEVKKPGASVKVSCKASGYTFPRYHIHWVRQAPGQGLEWMGMINPSGGTTTYAQKFQGRVTMTRDTSTSTVYMELSSLRSEDTAVYYCARDTGLGYYYGSGDFDYWGQGTLVTVSSASGGGGSGGGGSGGGGSHASDIQMTQSPSSLSASVGDRVTITCRASQSISSWLAWYQQKPGKAPKLLIYAASSLQSGVPSRFSGSGSGTDFTLTISSLQPEDFATYYCQQSHSFPLTFGGGTKVEIK",
    "RESULT NUMBER": 1380
  }
]

Please give the measured PD1 Binding for this binder: PD1-IL2-R02-A11 (scFv, V domains shown, cf) VH: QVQLVQSGAEVKKPGASVKVSCKASGHTFTRYYMHWVRQAPGQGLEWMGIINPSGGYATYAQKFQGRVTMTRDTSTSTVYMELSSLRSEDTAVYYCASGWDVWGQGTLVTVSS VL: DIQMTQSPSSLSASVGDRVTITCRASQSINSWLAWYQQKPGKAPKLLIYATSTLESGVPSRFSGSGSGTDFTLTISSLQPEDFATYYCQQSYSFPPTFGQGTKVEIK
1620
